Biological target: rBIIa/beta 1 sodium channels expressed in Xenopus oocytes (Rattus norvegicus, UniProt P04775)
Test: Electrophysiological Assay 2: two-electrode voltage clamp in Xenopus oocytes
Conditions: apparent Ki for the inactivated state from single point inhibition data, read-out: RBIIA/β1 Ki
Protocol: Electrophysiological Assay 2 was used to measure potencies of compounds of the present invention rBIIa/beta 1 sodium channels expressed in Xenopus oocytes. […] Electrophysiology: Membrane current responses were recorded in frog Ringer solution containing 115 mM NaCl, 2 mM KCl, 1.8 mM CaCl2, 5 mM HEPES, pH 7.4. […]
metric_name: pKi
When answering, recall that pKi equals minus log10 of the concentration in mol/L, and write that number alone.

Take a look at these entries with their results.
Cc1cc(N(C)C)cc(-c2ccc(Oc3ccc(F)cc3)cc2)n1 [Compound 14] :: 6.48
N#Cc1ccc(C(N)=O)nc1-c1ccc(Oc2ccccc2)cc1 :: 4.92
CCOc1ccc(-c2cccc(C(N)=O)n2)cc1 [Compound 8e, 6-(4-ethoxyphenyl)pyridine-2-carboxamide] :: 4.23

Q. Find the recorded pKi belonging to Fc1ccc(Oc2ccc(-c3ccnc(-c4nc[nH]n4)n3)cc2)cc1 and report it.
A. 5.23

Q. Find the recorded pKi belonging to O=C(c1nccc(-c2ccc(Oc3ccc(F)cc3)cc2)n1)C(Br)Br and report it.
A. 4.97

Q. Find the recorded pKi belonging to CN(C)c1nccc(-c2ccc(Oc3ccc(F)cc3)cc2)n1 and report it.
A. 4.56

Q. Find the recorded pKi belonging to O=C(NCCN1CCCCC1)c1cccc(-c2ccc(Oc3ccc(F)cc3)cc2)n1 [Compound 3] and report it.
A. 7.22

###

target: rBIIA isoform of Na+ channels (Rattus norvegicus); experiment: Electrophysiological Assay 1: patch-clamp of voltage-sensitive Na+ currents in HEK-293 cells; conditions: HEK-293 cells stably expressing rBIIA; apparent antagonist dissociation constant for inactivated sodium channels
metric_name: Ki (nM)
Give just the number in nM; leave the unit off.

Take a look at these entries with their results.
NC(=O)c1nc(-c2ccc(Oc3ccccc3)cc2)c(N)nc1N :: 2200
NC(=O)c1nccc(-c2ccc(Oc3ccc(C(F)(F)F)cc3)cc2)n1 :: 210

Next molecule, Ki to be filled in.
Q. Could you share what Ki was measured for CC(C)(C)NC(=O)c1nccc(-c2ccc(Oc3ccc(F)cc3)cc2)n1 , tested on rBIIA isoform of Na+ channels (Rattus norvegicus)?
A. 180

###

biological target: rBIIa/beta 1 sodium channels expressed in Xenopus oocytes (Rattus norvegicus); test: Electrophysiological Assay 2: two-electrode voltage clamp in Xenopus oocytes; type: cell-based; details: apparent Ki for the inactivated state from single point inhibition data, read-out: RBIIA/β1 Ki
metric_name: Ki
A bare number is not enough; add the unit after it.

Q. Find the recorded Ki belonging to COc1cc(C(N)=O)nc(-c2ccc(Oc3ccc(F)cc3)cc2)c1 and report it.
A. 3.43 µM

Q. Find the recorded Ki belonging to NC(=O)c1ccc(-c2ccc(Oc3ccc(F)cc3)cc2)nc1C(N)=O and report it.
A. 4.54 µM

Q. Find the recorded Ki belonging to NC(=O)c1ccc(O)c(-c2ccc(Oc3ccccc3)cc2)n1 and report it.
A. 99.3 µM
